Known TGI of a selection of compounds
Tested on: HT29 colon
Assay: NCI tumour cell line growth inhibition, 48 h

compound: O=C1c2[nH]cc(CN3CCNCC3)c2C(=O)c2c1c(O)c1ccccc1c2O
target-or-test-system: HT29 colon
assay-result: > 100 µM
--
compound: OCC1OC(n2cnc3cccnc32)CC1O (stereo not drawn)
target-or-test-system: HT29 colon
assay-result: > 100 µM

We now examine a further compound.
*Q* Observed TGI on HT29 colon for COc1ccc(-c2ccc(/C=C/C(=O)NO)cc2)cc1 , please.
*A* > 100 µM

###

Test system: M14 melanoma
Assay: NCI tumour cell line growth inhibition, 48 h
assay-metric: GI50

Below are worked cases with known answers.
smiles-input: COc1ccc(/C(C)=C(\c2ccc(Cl)cc2)c2ccc(OCCN3CCCC3)cc2)cc1
GI50: 0.752 µM
--
smiles-input: COc1ccc(-c2oc(=O)ccc2C#Cc2cc(OC)c(OC)c(OC)c2)cc1O
GI50: 26.9 µM

We now examine a further molecule.
*Q* Which GI50 value is on record for COc1ccc(-c2ccc3c(NC(=O)C4CC4)n[nH]c3n2)cc1 ?
*A* > 25 µM
